Target: T1, HEK293/mPRLR (Mus musculus, UniProt Q08501)
T1 construct: HA; expressed in transfected cells; host or cells: HEK293
T1 sequence (Q08501 20-608): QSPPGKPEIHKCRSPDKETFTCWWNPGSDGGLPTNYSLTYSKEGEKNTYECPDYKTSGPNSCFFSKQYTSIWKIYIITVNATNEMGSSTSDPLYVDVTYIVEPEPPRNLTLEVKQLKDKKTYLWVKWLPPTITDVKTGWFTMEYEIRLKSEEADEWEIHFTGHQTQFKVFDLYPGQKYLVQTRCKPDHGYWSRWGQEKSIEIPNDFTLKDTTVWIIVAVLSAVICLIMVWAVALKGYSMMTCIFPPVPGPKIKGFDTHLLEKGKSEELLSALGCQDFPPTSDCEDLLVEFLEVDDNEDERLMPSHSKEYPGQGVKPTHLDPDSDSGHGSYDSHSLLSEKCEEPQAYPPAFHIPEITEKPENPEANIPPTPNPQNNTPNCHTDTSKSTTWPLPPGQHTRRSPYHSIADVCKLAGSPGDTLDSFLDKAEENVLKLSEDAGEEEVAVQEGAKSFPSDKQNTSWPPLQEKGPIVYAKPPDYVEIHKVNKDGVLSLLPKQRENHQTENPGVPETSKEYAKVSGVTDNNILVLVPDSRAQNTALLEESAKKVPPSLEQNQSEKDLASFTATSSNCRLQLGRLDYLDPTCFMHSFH
Test: FACS cell surface binding
Procedure: The ability of anti-PRLR antibodies to selectively bind PRLR expressing cell lines was next determined. […] Cell surface expression of PRLR on 293/hPRLR cells was assessed via FACS analysis. […] Following two additional washes, samples were run on a Hypercyt® cytometer and analyzed in FORECYT™ (IntelliCyt, Albuquerque, N. Mex.). The mean fluorescence intensities (MFI) were expressed as fold change above isotype control levels (background). […]
parameter: FACS Cell Binding (Fold Above Background)
// return numeric value only (unit: Fold Above Background, not printed)

H1H6975N: human IgG1 Fc form of H2M6975N; anti-PRLR; HCVR/LCVR SEQ ID NOs 370/378 (antibody, V domains shown, human IgG1 Fc) VH: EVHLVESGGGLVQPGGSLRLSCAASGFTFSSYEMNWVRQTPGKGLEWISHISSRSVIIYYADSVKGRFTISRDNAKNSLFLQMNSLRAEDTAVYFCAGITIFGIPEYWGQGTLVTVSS VL: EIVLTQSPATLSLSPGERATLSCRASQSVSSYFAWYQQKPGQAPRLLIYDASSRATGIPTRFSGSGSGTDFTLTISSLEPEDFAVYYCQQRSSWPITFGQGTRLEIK
1
H1H6958N2: human IgG1 Fc form of H2M6958N2; anti-PRLR, receptor blocking; HCVR/LCVR SEQ ID NOs 290/298 (antibody, V domains shown, human IgG1 Fc) VH: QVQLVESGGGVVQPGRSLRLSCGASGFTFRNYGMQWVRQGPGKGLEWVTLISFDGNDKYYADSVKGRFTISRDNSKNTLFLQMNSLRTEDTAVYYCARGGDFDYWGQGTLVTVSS VL: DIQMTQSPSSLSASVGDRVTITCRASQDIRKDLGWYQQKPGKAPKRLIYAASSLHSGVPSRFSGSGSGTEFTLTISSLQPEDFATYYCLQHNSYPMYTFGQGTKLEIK
1
H1H6790P: anti-PRLR antibody, human IgG1 Fc; HCVR/LCVR SEQ ID NOs 114/122 (antibody, V domains shown, human IgG1 Fc) VH: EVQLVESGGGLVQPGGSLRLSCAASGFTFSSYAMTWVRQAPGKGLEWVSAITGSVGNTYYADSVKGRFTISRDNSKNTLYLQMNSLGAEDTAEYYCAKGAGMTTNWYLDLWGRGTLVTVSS VL: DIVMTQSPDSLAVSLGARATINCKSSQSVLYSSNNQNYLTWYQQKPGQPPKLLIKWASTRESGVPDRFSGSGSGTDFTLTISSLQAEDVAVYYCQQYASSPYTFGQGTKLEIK
1

FACS Cell Binding (Fold Above Background) for H1H6801P: anti-PRLR antibody, human IgG1 Fc; HCVR/LCVR SEQ ID NOs 210/218 (antibody, V domains shown, human IgG1 Fc) VH: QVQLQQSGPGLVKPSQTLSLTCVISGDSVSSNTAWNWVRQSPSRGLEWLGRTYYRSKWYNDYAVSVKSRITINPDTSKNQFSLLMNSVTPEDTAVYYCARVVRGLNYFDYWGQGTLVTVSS VL: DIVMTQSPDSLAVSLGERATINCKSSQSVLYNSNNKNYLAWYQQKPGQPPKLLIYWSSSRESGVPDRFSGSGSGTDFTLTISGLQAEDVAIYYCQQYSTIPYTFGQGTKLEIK is 56

FACS Cell Binding (Fold Above Background) for H1H6976N: human IgG1 Fc form of H2M6976N; anti-PRLR; HCVR/LCVR SEQ ID NOs 386/394 (antibody, V domains shown, human IgG1 Fc) VH: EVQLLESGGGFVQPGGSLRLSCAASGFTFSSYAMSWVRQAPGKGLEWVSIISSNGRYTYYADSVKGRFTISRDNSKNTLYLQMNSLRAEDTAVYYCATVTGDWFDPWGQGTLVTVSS VL: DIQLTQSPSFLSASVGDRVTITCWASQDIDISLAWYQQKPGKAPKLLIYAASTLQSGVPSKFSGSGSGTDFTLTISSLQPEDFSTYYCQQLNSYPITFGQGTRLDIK is 1

FACS Cell Binding (Fold Above Background) for H1H6782P: anti-PRLR antibody, human IgG1 Fc; HCVR/LCVR SEQ ID NOs 66/74; non-blocking (antibody, V domains shown, human IgG1 Fc) VH: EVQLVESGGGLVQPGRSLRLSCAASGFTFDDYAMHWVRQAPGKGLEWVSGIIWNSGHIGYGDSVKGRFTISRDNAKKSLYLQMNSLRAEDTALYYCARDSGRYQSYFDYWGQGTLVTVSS VL: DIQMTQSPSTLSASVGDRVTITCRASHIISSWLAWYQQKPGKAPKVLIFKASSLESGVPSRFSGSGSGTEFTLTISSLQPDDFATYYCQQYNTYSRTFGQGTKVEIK is 4

FACS Cell Binding (Fold Above Background) for H1H6804P: anti-PRLR antibody, human IgG1 Fc; HCVR/LCVR SEQ ID NOs 242/250 (antibody, V domains shown, human IgG1 Fc) VH: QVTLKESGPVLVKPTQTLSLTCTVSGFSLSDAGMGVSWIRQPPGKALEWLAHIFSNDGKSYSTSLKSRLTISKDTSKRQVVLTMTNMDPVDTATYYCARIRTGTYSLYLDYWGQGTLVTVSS VL: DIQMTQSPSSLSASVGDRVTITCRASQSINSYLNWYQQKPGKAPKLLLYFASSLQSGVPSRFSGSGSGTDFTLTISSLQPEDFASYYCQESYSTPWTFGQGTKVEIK is 1

FACS Cell Binding (Fold Above Background) for H1H6765P: anti-PRLR antibody, human IgG1 Fc; HCVR/LCVR SEQ ID NOs 18/26 (antibody, V domains shown, human IgG1 Fc) VH: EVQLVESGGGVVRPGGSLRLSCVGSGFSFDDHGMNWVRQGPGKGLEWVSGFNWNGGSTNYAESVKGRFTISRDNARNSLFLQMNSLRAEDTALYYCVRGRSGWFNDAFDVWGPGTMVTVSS VL: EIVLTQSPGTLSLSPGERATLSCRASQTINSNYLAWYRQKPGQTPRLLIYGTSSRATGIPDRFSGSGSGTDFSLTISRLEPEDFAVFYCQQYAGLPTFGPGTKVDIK is 1
